Let's look at some molecules and their measured cell viability.
- Tested on: Calu-3
- assay name: cell viability relative to DMSO; higher = less toxic
- condition summary: 72 h; 10000 nM
measure: cell viability (%)

molecule: NCC(=O)O
observed value: 97.3
//
molecule: O=c1c(-c2ccc(O)cc2)coc2c([C@@H]3O[C@H](CO)[C@@H](O)[C@H](O)[C@H]3O)c(O)ccc12
observed value: 95.5
//
molecule: O=C(O)c1cc(-c2ccc(F)cc2F)ccc1O
observed value: 95.7
//
molecule: NNC(=O)CSc1nc2scc(-c3ccccc3)c2c(=O)n1-c1ccccc1
observed value: 101
//
molecule: CN(C)CC/C=C1\c2ccccc2CSc2ccccc21 [dosulepin]
observed value: 87
//
molecule: NC(N)=Nc1nc(CSCCN/C=N/S(=O)(=O)c2ccc(Br)cc2)cs1
observed value: 93.3
//
molecule: CCC[N+]12[C@H](O)[C@@H](CC)[C@@H]3C[C@H]1[C@@H]1N(C)c4ccccc4[C@]14C[C@H]2[C@@H]3[C@H]4O
observed value: 91.4
//
molecule: N#Cc1ccccc1OCC(O)CNCCNC(=O)Nc1ccccc1 (stereo not drawn)
observed value: 92.4
//
molecule: N#Cc1c(Oc2ccc(F)c(NC(=O)Cc3cccc(C(F)(F)F)c3)c2)ccc2nc(NC(=O)C3CC3)sc12
observed value: 61.6
//
molecule: CCN(CC)CCN(Cc1ccc(-c2ccc(C(F)(F)F)cc2)cc1)C(=O)Cn1c(SCc2ccc(F)cc2)nc(=O)c2c1CCC2
observed value: 0.4
//
molecule: COCCOc1ccc2c(c1)ncn2-c1ccc2cccc(N3CCC(N)CC3)c2n1
observed value: 87.4
//
molecule: O=C(CCCCC(=O)Nc1c(I)cc(I)c(C(=O)O)c1I)Nc1c(I)cc(I)c(C(=O)O)c1I [iodipamide]
observed value: 101
//
molecule: CN1C(=O)OC(C)(C)C1=O
observed value: 108
//
molecule: COc1cc2c(cc1OC)C1CC(=O)C(CC(C)C)CN1CC2 (stereo not drawn)
observed value: 104
//
molecule: CC(C)(OCc1nn(Cc2ccccc2)c2ccccc12)C(=O)O
observed value: 104
//
molecule: O=[N+]([O-])c1cn2c(n1)OC[C@@H](OCc1ccc(-c3ccc(OC(F)(F)F)cc3)nc1)C2
observed value: 98.5
//
molecule: COc1cc(C[C@@H](CO[C@@H]2O[C@H](CO)[C@@H](O)[C@H](O)[C@H]2O)[C@H](CO[C@@H]2O[C@H](CO)[C@@H](O)[C@H](O)[C@H]2O)Cc2ccc(O)c(OC)c2)ccc1O [secoisolariciresinol-diglucoside]
observed value: 102
//
molecule: O=C(Nc1ccncc1)C(=O)c1cn(Cc2ccc(Cl)cc2)c2ccccc12
observed value: 104

----------
Let's look at some compounds and their measured cell viability.
- Test system: Caco-2
- assay name: cell viability relative to DMSO; higher = less toxic
- condition summary: 72 h; 10 nM
measure: cell viability (%)

compound: N[C@@H](Cn1oc(=O)[nH]c1=O)C(=O)O [L-quisqualic-acid]
observed value: 94

compound: COc1cc(NS(C)(=O)=O)ccc1Nc1c2ccccc2nc2ccccc12 [amsacrine]
observed value: 90.9

compound: COc1ccc(NC(=O)c2ccc(C(=N)N(C)C)cc2)c(C(=O)Nc2ccc(Cl)cn2)c1 [betrixaban]
observed value: 97.5

compound: CCCCOc1cc(CC2CNC(=O)N2)ccc1OC (stereo not given) [Ro-20-1724]
observed value: 96.8

compound: NCC(=O)O [AZD4282]
observed value: 104

compound: CO[C@H]1O[C@@H]2O[C@@]3(C)CC[C@H]4[C@H](C)CC[C@@H]([C@H]1C)[C@@]24OO3 [artemether]
observed value: 94.5

compound: CC(C)(C)NC[C@H](O)c1ccc(O)cc1Cl [meluadrine]
observed value: 97.6

compound: NC(=O)c1cn([C@@H]2O[C@H](CO)[C@@H](O)[C@H]2O)c2ncnc(N)c2c1=O [API-1]
observed value: 92.9

compound: CC(C)Cn1cnc2c1c(=O)n(C)c(=O)n2C [isbufylline]
observed value: 96.8

compound: CC(C)(OCc1nn(Cc2ccccc2)c2ccccc12)C(=O)O [bindarit]
observed value: 101

----------
- Tested on: U2OS
- assay name: cell viability relative to DMSO; higher = less toxic
- condition summary: 72 h; 100 nM
measure: cell viability (%)

compound: CN(C)CC/C=C1\c2ccccc2CSc2ccccc21 [dosulepin]
observed value: 96.4
//
compound: O=C(O)c1cc(=O)c2c(OCC(O)COc3cccc4oc(C(=O)O)cc(=O)c34)cccc2o1
observed value: 98.4
//
compound: CCCCCCN(CCCCCC)C(=O)Cc1c(-c2ccc(F)cc2)[nH]c2ccccc12
observed value: 103
//
compound: C1CCC(/N=C(\NC23CC4CC(CC(C4)C2)C3)N2CCOCC2)CC1
observed value: 102
//
compound: COc1cc(OC)cc(C(=O)NNC(=O)Nc2cccc3ccccc23)c1
observed value: 98.3
//
compound: Fc1ccc(-c2c3cccc(C(F)(F)F)c3nn2Cc2ccc(F)cc2Cl)cc1
observed value: 102
//
compound: NNC(=O)CSc1nc2scc(-c3ccccc3)c2c(=O)n1-c1ccccc1
observed value: 98.3
//
compound: CCOC(=O)[C@@H](C)Oc1ccc(Oc2nc3ccc(Cl)cc3o2)cc1
observed value: 97.3
//
compound: CCCCCCCCCCCCCCCC(=O)OC(CC(=O)[O-])C[N+](C)(C)C (centres undefined)
observed value: 99.9
//
compound: NCc1c[nH]c(=S)n1[C@H]1CCc2c(F)cc(F)cc2C1 [nepicastat]
observed value: 99
//
compound: Cc1ncc(-c2ccnc(Nc3ccc(S(C)(=O)=O)cc3)n2)n1C(C)C
observed value: 108
//
compound: Nc1ncnc(Nc2ccc(Cl)cc2)n1
observed value: 97.8
//
compound: COc1ccccc1C(=O)Nc1cc2c(cc1N1CCCC1)n(C)c(=O)n2C
observed value: 97.6
//
compound: CC(C)Cn1cnc2c1c(=O)n(C)c(=O)n2C
observed value: 98.1
//
compound: C#Cc1cccc(Nc2ncnc3cc(OC)c(OCCCCCCC(=O)NO)cc23)c1
observed value: 93.4
//
compound: COc1cc(C(=S)N2CCOCC2)cc(OC)c1OC
observed value: 94.6
//
compound: O=C(Nc1ccncc1)C(=O)c1cn(Cc2ccc(Cl)cc2)c2ccccc12
observed value: 97.2
//
compound: COc1ccc2c(O[C@@H]3C[C@H]4C(=O)N[C@]5(C(=O)NS(=O)(=O)C6CC6)C[C@H]5/C=C\CCCCN(C)C(=O)[C@@H]4C3)cc(-c3nc(C(C)C)cs3)nc2c1C
observed value: 99.9
//
compound: C#CCN(C)Cc1ccccc1
observed value: 99.9

----------
- System: Caco-2
- assay name: cell viability relative to DMSO; higher = less toxic
- condition summary: 72 h; 10000 nM

compound: COc1cc(OC)c(/C=C2/C(=O)Nc3ccccc32)c(OC)c1 [IC261]
unit spec: %
cell viability: 57.6

compound: CC(SC(=O)c1cccs1)C(=O)NCC(=O)O (centres undefined) [stepronin]
unit spec: %
cell viability: 103

compound: OC[C@H]1O[C@@H](O[C@@H]2[C@H](O)[C@@H](O)[C@H](O[C@H]3[C@H](O)[C@@H](O)C(O)O[C@@H]3CO)O[C@@H]2CO)[C@H](O)[C@@H](O)[C@H]1O (some centres undefined) [4-galactosyllactose]
unit spec: %
cell viability: 91.7

compound: CCOC(=O)[C@H](CCc1ccccc1)N[C@H]1CS[C@H](c2cccs2)CN(CC(=O)O)C1=O [temocapril]
unit spec: %
cell viability: 105

----------
Let's look at some compounds and their measured cell viability.
- System: Vero E6
- assay name: cell viability relative to DMSO; higher = less toxic
- condition summary: 72 h; 10 nM
Structures can show the parent of a compound that is named as a salt.
measure: cell viability (%)

compound: NC1=N[C@@]2(c3cc(NC(=O)c4ccc(F)cn4)ccc3F)COC[C@H]2CS1
measure: cell viability
unit spec: %
observed value: 97.2
--
compound: C[N+](C)(C)[C@@H](Cc1c[nH]c(=S)[nH]1)C(=O)O
measure: cell viability
unit spec: %
observed value: 94.9
--
compound: CCC(=O)OCC(=O)[C@@]1(OC(=O)CC)[C@H](C)C[C@H]2[C@H]3[C@H]([C@@H](O)C[C@@]21C)[C@@]1(C)C=CC(=O)C=C1C[C@H]3Cl [alclometasone-dipropionate]
measure: cell viability
unit spec: %
observed value: 101
--
compound: Cc1ccnc(NC(=O)C(C)c2cccc(C(=O)c3ccccc3)c2)c1 (configuration not stated)
measure: cell viability
unit spec: %
observed value: 98.8
--
compound: CC[C@H](C)[C@@H]1NC(=O)[C@H](Cc2ccc(O)cc2)NC(=O)[C@@H](N)CSSC[C@@H](C(=O)N2CCC[C@H]2C(=O)N[C@@H](CC(C)C)C(=O)NCC(N)=O)NC(=O)[C@H](CC(N)=O)NC(=O)[C@H](CCC(N)=O)NC1=O
measure: cell viability
unit spec: %
observed value: 112
--
compound: O=C(O)Cc1ccc2c(c1)C(=O)c1ccccc1CO2
measure: cell viability
unit spec: %
observed value: 97.5
--
compound: C[C@]12CC[C@@H]3c4ccc(O)cc4C[C@@H](CCCCCCCCC[S+]([O-])CCCC(F)(F)C(F)(F)F)[C@H]3[C@@H]1CC[C@@H]2O (some centres not stated)
measure: cell viability
unit spec: %
observed value: 102
--
compound: Cc1ccc2c(c1)C(=O)[C@]1(O)CCN(c3ccccc3)C1=N2 (racemic) [blebbistatin-(+/-)]
measure: cell viability
unit spec: %
observed value: 96.6
--
compound: Cn1cnc2c(NCc3ccccc3)nc(NCCO)nc21
measure: cell viability
unit spec: %
observed value: 98.1
--
compound: COc1ccc(/C=C/C(=O)/C=C(O)/C=C/c2ccc(OC)c(OC)c2)cc1OC
measure: cell viability
unit spec: %
observed value: 93.9
--
compound: CCCC[C@H](NC(=O)[C@@H]1[C@@H]2[C@H](CN1C(=O)[C@@H](NC(=O)NC1(CS(=O)(=O)C(C)(C)C)CCCCC1)C(C)(C)C)C2(C)C)C(=O)C(=O)NC1CC1
measure: cell viability
unit spec: %
observed value: 100
--
compound: CS(=O)(=O)N(Cc1ccco1)C[C@@H](O)Cn1c2ccccc2c2ccccc21
measure: cell viability
unit spec: %
observed value: 101
--
compound: OC(c1cc(C(F)(F)F)nc2c(C(F)(F)F)cccc12)C1CCCCN1 (configuration not stated)
measure: cell viability
unit spec: %
observed value: 106
--
compound: Cc1c(C)c2c(c(C)c1OC(=O)CCC(=O)O)CC[C@@](C)(CCC[C@H](C)CCC[C@H](C)CCCC(C)C)O2 [D-alpha-tocopheryl-succinate]
measure: cell viability
unit spec: %
observed value: 101
--
compound: CC(C)(C)c1cc(/C=C(\C#N)C(N)=S)cc(C(C)(C)C)c1O
measure: cell viability
unit spec: %
observed value: 97.5
--
compound: COc1cccc(CCc2ccccc2OCC(CN(C)C)OC(=O)CCC(=O)O)c1 (configuration not stated) [sarpogrelate]
measure: cell viability
unit spec: %
observed value: 98.6
--
compound: O=C(NNC(=O)c1ccc(CNS(=O)(=O)c2ccc(F)c(Cl)c2)cc1)c1ccccc1
measure: cell viability
unit spec: %
observed value: 98.5
--
compound: CN(C)CCn1cc(S(=O)(=O)c2cccc(F)c2)c2cccnc21
measure: cell viability
unit spec: %
observed value: 102
--
compound: O=c1[nH]ccc2cc(OC3CCNCC3)ccc12
measure: cell viability
unit spec: %
observed value: 101
--
compound: COc1cccc(OC)c1OCCNC[C@H]1COc2ccccc2O1
measure: cell viability
unit spec: %
observed value: 100
--
compound: Fc1ccc(-c2c3cccc(C(F)(F)F)c3nn2Cc2ccc(F)cc2Cl)cc1
measure: cell viability
unit spec: %
observed value: 105
--
compound: C#CCN(C)Cc1ccccc1
measure: cell viability
unit spec: %
observed value: 96.3
--
compound: CC(CNC(=O)c1cccnc1)NC(=O)c1cccnc1 (configuration not stated)
measure: cell viability
unit spec: %
observed value: 99.1
--
compound: NCc1c[nH]c(=S)n1[C@H]1CCc2c(F)cc(F)cc2C1 [nepicastat]
measure: cell viability
unit spec: %
observed value: 104
--
compound: N=c1ccn2c(n1)O[C@H]1[C@H](O)[C@@H](CO)O[C@H]12 [Cyclocytidine HCl]
measure: cell viability
unit spec: %
observed value: 97.1
--
compound: CCCC[C@@H](C=O)NC(=O)[C@H](CC(C)C)NC(=O)OCc1ccccc1
measure: cell viability
unit spec: %
observed value: 99.6
--
compound: COC(=O)c1sccc1S(=O)(=O)Nc1ccc(Nc2ccccc2)cc1OC
measure: cell viability
unit spec: %
observed value: 104
